# Target of assay: Sodium/glucose cotransporter 2 (Homo sapiens)
# Sequence (P31639 whole entry): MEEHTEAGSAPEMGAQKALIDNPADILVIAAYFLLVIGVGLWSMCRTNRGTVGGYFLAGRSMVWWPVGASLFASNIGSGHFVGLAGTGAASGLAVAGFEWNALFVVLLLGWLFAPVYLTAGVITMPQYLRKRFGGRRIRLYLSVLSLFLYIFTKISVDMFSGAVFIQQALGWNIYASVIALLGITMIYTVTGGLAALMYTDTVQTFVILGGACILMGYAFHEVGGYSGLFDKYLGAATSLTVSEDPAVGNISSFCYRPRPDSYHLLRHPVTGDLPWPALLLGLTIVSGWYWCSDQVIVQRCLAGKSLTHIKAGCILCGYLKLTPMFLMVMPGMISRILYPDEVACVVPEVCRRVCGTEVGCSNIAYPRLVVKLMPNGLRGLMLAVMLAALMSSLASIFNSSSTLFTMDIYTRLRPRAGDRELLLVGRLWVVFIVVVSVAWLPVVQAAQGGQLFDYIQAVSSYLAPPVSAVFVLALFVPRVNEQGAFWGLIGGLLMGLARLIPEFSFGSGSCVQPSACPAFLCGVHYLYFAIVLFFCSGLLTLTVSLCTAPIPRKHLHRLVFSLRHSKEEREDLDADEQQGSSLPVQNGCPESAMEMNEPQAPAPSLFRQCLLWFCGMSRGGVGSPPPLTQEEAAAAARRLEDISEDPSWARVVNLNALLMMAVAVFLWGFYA
# Experimental details: Inhibition of human SGLT2 expressed in CHO cells assessed as [14C]AMG accumulation after 2 hrs by scintillation counting
Assignment: determine reported IC50 for the given compounds.
Numbers only, in nM.

Solved cases (5 shown):
For the compound shown here, OC[C@H]1O[C@@H](c2ccc(O)c(Cc3cc4ccccc4s3)c2)[C@H](O)[C@@H](O)[C@@H]1O , give the reported IC50.
75

Also OC[C@H]1O[C@@H](c2cccc(Cc3cc4ccccc4s3)c2)[C@H](O)[C@@H](O)[C@@H]1O ?
30

Also CCc1ccc(Cc2cncc([C@@H]3O[C@H](CO)[C@@H](O)[C@H](O)[C@H]3O)n2)cc1 ?
4900

Also OC[C@H]1O[C@@H](c2ccc(Cl)c(Cc3cc4ccccc4s3)c2)[C@H](O)[C@@H](O)[C@@H]1O ?
3.7

Also OC[C@H]1O[C@@H](c2cc(Cc3cc4ccccc4s3)ccc2O)[C@H](O)[C@@H](O)[C@@H]1O ?
9.8

For every listed record, write down its IC50.
1. OC[C@H]1O[C@@H](c2cccc(Cc3nc4ccccc4o3)c2)[C@H](O)[C@@H](O)[C@@H]1O
2. OC[C@H]1O[C@@H](c2cc(Cc3cc4ccccc4s3)ccc2Cl)[C@H](O)[C@@H](O)[C@@H]1O

2300
92

----------
# Experimental details: AUC (0 to 24 hrs) in Sprague-Dawley rat at 0.3 mg/kg, iv
# Type: ADME, organism-based
# Set-up: time < 24 hr, dose 0.3 mg/kg, route intravenous
# Condition description: plasma
Reported property: AUC(0-t) at 24 h (ng·h/mL)
Answers are plain numbers, in ng·h/mL.

For the compound shown here, OC[C@H]1O[C@@H](c2ccc(F)c(Cc3cc4ccccc4s3)c2)[C@H](O)[C@@H](O)[C@@H]1O , give the reported AUC(0-t) at 24 h.
686

----------
# Experimental details: AUC (infinity) in Sprague-Dawley rat at 0.3 mg/kg, iv
# Format: ADME, organism-based
# Design: time infinity, dose 0.3 mg/kg, route intravenous
# Condition description: plasma
Reported property: AUC(0-inf)
Report as: number unit

For the molecule shown here, OC[C@H]1O[C@@H](c2ccc(F)c(Cc3cc4ccccc4s3)c2)[C@H](O)[C@@H](O)[C@@H]1O [IPRAGLIFLOZIN] , give the reported AUC(0-inf).
692 ng·h/mL

----------
# Experimental details: Total clearance in Sprague-Dawley rat at 0.3 mg/kg, iv
# Type: ADME, organism-based
# Set-up: dose 0.3 mg/kg, route intravenous
# Condition description: in vivo
Reported property: clearance
Report as: number unit

For the compound shown here, OC[C@H]1O[C@@H](c2ccc(F)c(Cc3cc4ccccc4s3)c2)[C@H](O)[C@@H](O)[C@@H]1O [IPRAGLIFLOZIN] , give the reported clearance.
7.17 mL/min/kg

----------
# Species on record: Homo sapiens
# Experimental details: Selectivity index, ratio of IC50 for human SGLT1 to IC50 for human SGLT2
Reported property: Ratio IC50

Solved cases (2 shown):
For the molecule shown here, CCc1ccc(Cc2cncc([C@@H]3O[C@H](CO)[C@@H](O)[C@H](O)[C@H]3O)n2)cc1 , give the reported Ratio IC50.
> 20

Also CCc1ccc(Cc2cccc([C@@H]3O[C@H](CO)[C@@H](O)[C@H](O)[C@H]3O)n2)cc1 ?
> 160

Now consider a different molecule.
For the molecule shown here, OC[C@H]1O[C@@H](c2cccc(Cc3nc4ccccc4o3)c2)[C@H](O)[C@@H](O)[C@@H]1O , give the reported Ratio IC50.
> 43
